All values here come from patent US9346786B2.

- assayed_system: recombinant human NK3 receptor (Homo sapiens (Human), UniProt P29371)
- Sequence (P29371 whole entry): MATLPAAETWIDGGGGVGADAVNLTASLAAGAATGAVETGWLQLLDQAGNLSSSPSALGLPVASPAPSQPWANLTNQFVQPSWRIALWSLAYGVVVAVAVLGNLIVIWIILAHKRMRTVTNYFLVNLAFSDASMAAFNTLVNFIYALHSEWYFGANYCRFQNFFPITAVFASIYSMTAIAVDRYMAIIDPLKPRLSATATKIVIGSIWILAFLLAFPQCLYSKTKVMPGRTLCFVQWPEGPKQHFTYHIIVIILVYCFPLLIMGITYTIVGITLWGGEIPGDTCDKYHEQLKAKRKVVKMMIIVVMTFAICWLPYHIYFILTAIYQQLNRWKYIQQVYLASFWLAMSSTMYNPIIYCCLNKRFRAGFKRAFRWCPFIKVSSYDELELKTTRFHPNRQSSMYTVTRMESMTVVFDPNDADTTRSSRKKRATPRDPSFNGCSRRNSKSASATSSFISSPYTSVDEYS
- method_description: biochemical
- Assay type: binding
- particulars: [3H]SR142801, membranes of HEK293 cells transiently expressing recombinant human NK3 receptor; read-out: Data Ki (hNK-3 receptor affinity)
Entries get a class label from measured Ki. See ranges: bottom bin (below 5 nM), middle bin (5 nM to below 10 nM), top bin (10 nM or more)

molecule="CCN(C(=O)Oc1ccc(F)cc1)[C@@H]1CN(C(=O)C2CCN(C(=O)C3CCOC(C)(C)C3)CC2)C[C@H]1c1ccc(Cl)cc1 (stereo partly shown)" group_label="bottom bin"
molecule=CC(=O)c1ccc(N2CCC(C(=O)N3C[C@@H](N(C(=O)Oc4ccc(F)cc4)C(C)C)[C@H](c4ccc(Cl)cc4)C3)CC2)nc1 group_label="top bin"
molecule=CCN(C(=O)Oc1ccc(F)cc1)[C@@H]1CN(C(=O)C2CCN(c3ccc(Cl)cn3)CC2)C[C@H]1c1ccc(F)c(Cl)c1 group_label="bottom bin"
molecule=CCN(C(=O)Oc1ccc(F)cc1)[C@@H]1CN(C(=O)C2CCN(C(=O)C3(C#N)CC3)CC2)C[C@H]1c1ccc(Cl)cc1 group_label="middle bin"

Quick check: band for CC(C)N(C(=O)Oc1ccc(F)cc1)[C@@H]1CN(C(=O)C2CCN(c3ccc(C#N)nn3)CC2)C[C@H]1c1ccc(Cl)cc1
top bin

GET /class?item= CCN(CC)CC(=O)c1ccc(N2CCC(C(=O)N3C[C@@H](N(CC)C(=O)Oc4ccc(F)cc4)[C@H](c4ccc(F)cc4)C3)CC2)nc1
top bin
